# test_target: E1E2 of HCV isolate AMS.3a.21071213 (genotype 3a) (Hepatitis C virus genotype 3a)
# procedure_text: cell-based or functional assay

binder	IC90, HCVpp neutralization
AT12-010 (antibody, V domains shown) VH: QLQLVQSGAEVKKPGSSVKVSCKASGGTFTSYAINWVRQVPGQGLEWMGEISPVFGTTHYAQKFQGRLKITADESADTAYMELSSLRSDDTAVYYCGRDRAPRLCSGGRCHSPPDHWGQGTLVTVSS VL: DIQMTQSPSSVSASVGDRVTITCRASQGFGNWLAWYQQKPGRAPKLLIFGASTLQNGVPSRFSGSASGTDFTLTITSLQPEDFATYYCLQTNTFPYTFGQGTKVEIKR	> 50 µg/mL

Each recorded value in this set is attributed to patent US20170313764A1.
